Where do the numbers come from? From patent US5977169A.

Molecular target: HIV-1 protease (Human immunodeficiency virus type 1 group M subtype B, UniProt P04585)
Construct: The protease (or proteinase) enzyme, consisting of only 99 amino acids
Experiment: In vitro HIV protease inhibitory assay (fluorescently labeled substrate, avidin-polystyrene particles)
Assay type: biochemical
Settings: HIV-1 dose 3.3 μM
value.kind: inhibition at 3.3 µM
Please format your answer as a value with the unit trailing.

>  <molecule>
CCCC1(CCC)OC(=O)C(C(c2ccccc2)c2cccc(NS(=O)(=O)c3cn(C)cn3)c2)=C1O (stereo not drawn) [IX-48]

>  <observed.measurement>
94.5%

$$$$
>  <molecule>
CCC1(CC)OC(=O)C(C(c2ccccc2)C2CC2)=C1O (stereo not drawn) [BX-14]

>  <observed.measurement>
92.7%

$$$$
>  <molecule>
CC(C)C1(C(C)C)OC(=O)C(C(c2ccccc2)C2CC2)=C1O (stereo not drawn) [BX-13]

>  <observed.measurement>
104%

$$$$

Task: Return value of inhibition at 3.3 µM for input CCC(C1=C(O)C(CCc2ccccc2)OC1=O)c1ccccc1 (stereo not drawn) [BX-16] , no commentary.
Output: 41.4%

---

Target: HIV-1 protease (Human immunodeficiency virus type 1 group M subtype B)
Construct: The protease (or proteinase) enzyme, consisting of only 99 amino acids
Assay: In vitro HIV protease inhibitory assay (fluorescently labeled substrate, avidin-polystyrene particles)
Type: biochemical
Conditions: HIV-1 dose 30.0 μM
Measured inhibition at 30 µM, listed per entry.
Record the value in %, omitting the unit from your answer.

Here's what some known entries look like.
>  <compound>
CCCC1(CCC)OC(=O)C(C(c2cccc(NS(=O)(=O)c3ccc4ccccc4n3)c2)C2CC2)=C1O (centres unmarked)

>  <study.system>
HIV-1 protease (Human immunodeficiency virus type 1 group M subtype B)

>  <inhibition at 30 µM / %>
84.8

$$$$
>  <compound>
CCCC1(CCC)OC(=O)C(C(c2cccc(NS(=O)(=O)c3cn(C)cn3)c2)C(C)C)=C1O (centres unmarked)

>  <study.system>
HIV-1 protease (Human immunodeficiency virus type 1 group M subtype B)

>  <inhibition at 30 µM / %>
102

$$$$

Task: Report inhibition at 30 µM, nothing else, for this compound: Cn1cnc(S(=O)(=O)Nc2cccc(C(C3=C(O)C(Cc4ccccc4)(Cc4ccccc4)OC3=O)C3CC3)c2)c1 (centres unmarked)
Output: 80.9

Task: Specify reported inhibition at 30 µM for the compound shown: O=C1OC2(CCCCC2)C(O)=C1C(c1ccccc1)C1CC1 (centres unmarked)
Output: 103

Task: Give recorded inhibition at 30 µM. O=C1OC(CCCc2ccccc2)(CCc2ccccc2)C(O)=C1C(c1ccccc1)C1CC1 (centres unmarked)
Output: 101

Task: Indicate the recorded inhibition at 30 µM value for this compound: CCCCC1(CCCc2ccccc2)OC(=O)C(C(c2ccccc2)C2CC2)=C1O (centres unmarked)
Output: 123

Task: Kindly indicate its recorded inhibition at 30 µM. Item: CCC(C1=C(O)C(Cc2ccccc2)OC1=O)c1ccccc1 (centres unmarked)
Output: 86.1

Task: Fill in reported inhibition at 30 µM for this entry: CCCC1(Cc2ccccc2)OC(=O)C(C(c2cccc(NS(=O)(=O)c3ccc(F)cc3)c2)C(C)C)=C1O (centres unmarked)
Output: 93.3

---

Each entry below carries its reported inhibition at 30 µM.
Molecular target: HIV-1 protease (Human immunodeficiency virus type 1 group M subtype B, UniProt P04585)
Construct: The protease (or proteinase) enzyme, consisting of only 99 amino acids
Assay: In vitro HIV protease inhibitory assay (fluorescently labeled substrate, avidin-polystyrene particles)
Assay type: biochemical
Settings: HIV-1 dose 30.0 μM
Give the figure together with its unit, number first.

>  <molecule>
CCCCC(CCc1ccccc1)C1OC(=O)C(C(c2ccccc2)C2CC2)=C1O (stereo not drawn) [GX-2]

>  <inhibition at 30 µM>
74.9%

$$$$
>  <molecule>
CCCC1(CCC)OC(=O)C(C(c2cccc(NS(=O)(=O)c3ccc(F)cc3)c2)C2CC2)=C1O (stereo not drawn)

>  <inhibition at 30 µM>
106%

$$$$
>  <molecule>
CC1(CCc2ccccc2)OC(=O)C(C(c2ccccc2)C2CC2)=C1O (stereo not drawn)

>  <inhibition at 30 µM>
118%

$$$$
>  <molecule>
CCCC1(CCC)OC(=O)C(C(CC(C)C)c2cccc(NS(=O)(=O)c3ccc(C#N)cc3)c2)=C1O (stereo not drawn)

>  <inhibition at 30 µM>
96.1%

$$$$
>  <molecule>
O=C1OC2(CCCCC2Cc2ccccc2)C(O)=C1C(c1ccccc1)C1CC1 (stereo not drawn)

>  <inhibition at 30 µM>
105%

$$$$
>  <molecule>
CCCC1(CCC)OC(=O)C(C(c2cccc(NS(=O)(=O)c3ccc(C#N)cn3)c2)C2CC2)=C1O (stereo not drawn)

>  <inhibition at 30 µM>
91.9%

$$$$
>  <molecule>
CCCC1(CCC)OC(=O)C(C(c2cccc(NS(=O)(=O)c3nccn3C)c2)C2CC2)=C1O (stereo not drawn)

>  <inhibition at 30 µM>
96.7%

$$$$
>  <molecule>
O=C1OC(C(CCc2ccccc2)c2ccccc2)C(O)=C1C(c1ccccc1)C1CC1 (stereo not drawn)

>  <inhibition at 30 µM>
103%

$$$$

Task: Provide only the value of recorded inhibition at 30 µM for CCCC1(Cc2cccnc2)OC(=O)C(C(c2ccccc2)C2CC2)=C1O (stereo not drawn)
Output: 104%

Task: Output measured inhibition at 30 µM for this item: CCC(c1ccccc1)C1OC(=O)C(C(c2ccccc2)C2CC2)=C1O (stereo not drawn)
Output: 103%

Task: Indicate its recorded inhibition at 30 µM; the molecule in question is O=C1OC(CCCc2ccccc2)C(O)=C1C(c1ccccc1)c1ccccc1 (stereo not drawn)
Output: 77.3%

Task: Return inhibition at 30 µM (reported value) for this molecule: CCCC1(CCC)OC(=O)C(C(c2cccc(NS(=O)(=O)c3ncc[nH]3)c2)C2CC2)=C1O (stereo not drawn)
Output: 83%

Task: Give the reported inhibition at 30 µM for this molecule. O=C1OC(CCc2ccccc2)(CCc2ccccc2)C(O)=C1C(c1ccccc1)C1CC1 (stereo not drawn)
Output: 99.8%

Task: Please give measured inhibition at 30 µM of the following entry: CCCC1(CCC)OC(=O)C(C(CC)c2cccc(N)c2)=C1O (stereo not drawn)
Output: 89.4%

Task: Please report the measured inhibition at 30 µM for CC(C)C(C1=C(O)C(CCCc2ccccc2)OC1=O)c1ccccc1 (stereo not drawn)
Output: 96.5%

Task: Return inhibition at 30 µM for the following molecule: CCCC1(Cc2ccccc2)OC(=O)C(C(c2cccc(NS(=O)(=O)c3cn(C)cn3)c2)C(C)C)=C1O (stereo not drawn)
Output: 94.3%

Task: Query inhibition at 30 µM for N#Cc1ccc(S(=O)(=O)Nc2cccc(C(C3=C(O)C(Cc4ccccc4)(Cc4ccccc4)OC3=O)C3CC3)c2)cc1 (stereo not drawn)
Output: 99.8%

Task: Dear colleague, please send me the reported inhibition at 30 µM for CCCC1(Cc2ccccc2)OC(=O)C(C(c2cccc(NS(=O)(=O)c3cccc4cccnc34)c2)C(C)C)=C1O (stereo not drawn) when you can.
Output: 109%
